System: Fam108B (ABHD17B) serine hydrolase [Mus musculus]
Experiment: mouse Fam108B serine hydrolase inhibitors, primary screen, counter-screen for RBBP9 inhibitor project, biochemical, fluorescence polarization (AID 1947);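 also: inhibitors lower polarization as less probe binds the enzyme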
Details: recombinant Fam108B, FP-Rh probe fluorescence polarization; at 9.51 µM; hits give high values
The whole screen tested about 300,000 compounds, of which about 990 (0.33%) were called active. Only a selection was taken, and actives are over-represented in it overall.
Listed here: items and their measured inhibition.
outcome.measure: inhibition (%)

- compound: "CC(=O)c1ccc(-c2ccc(Cn3c(C)nc4cc(N)c(C)nc43)cc2)cc1"
  obs.value: -2.95
- compound: "CCOc1ccc(S(=O)(=O)Nc2nccs2)cc1"
  obs.value: 2.3
- compound: "COc1ccc(C)cc1S(=O)(=O)NCCc1ccccc1"
  obs.value: 1.15
- compound: "CCn1cc(CN2CCCC(CNS(=O)(=O)Cc3ccccc3)C2)cn1 (stereo unspecified)"
  obs.value: -2.99
- compound: "O=C(NNC(=O)c1cnccc1C(F)(F)F)c1ccc(Cl)cc1"
  obs.value: -3.08
- compound: "COc1ccc(Nc2ncc(C(=O)N3CCN(c4ccccc4OC)CC3)c3ccccc23)cc1"
  obs.value: 5.14
- compound: "Cc1ccc(NS(=O)(=O)c2ccc(N/N=C/c3ccccc3OCC(=O)O)c([N+](=O)[O-])c2)c(C)c1"
  obs.value: 26.5
- compound: "CC[C@H]1OC(=O)[C@H](C)[C@@H](O[C@H]2C[C@@](C)(OC)[C@@H](O)[C@H](C)O2)[C@H](C)[C@@H](O[C@@H]2O[C@H](C)C[C@H](N(C)C)[C@H]2O)[C@](C)(O)C[C@@H](C)[C@@H]2N[C@@H](COCCOC)O[C@H]([C@H]2C)[C@]1(C)O"
  obs.value: -4.04
- compound: "Oc1oc(-c2ccccc2Br)nc1/C=N/c1ccccn1"
  obs.value: 25.5
- compound: "CN1/C(=C\\C=C2\\N=C(c3ccc(F)cc3)OC2=O)C(C)(C)c2ccccc21"
  obs.value: -7.15
- compound: "CCOc1cnc(-c2c(-c3ccccc3Cl)noc2C)o1"
  obs.value: -3.64
- compound: "CC(C)(C)c1ccc(/C=C2\\SC(=O)N=C2N)cc1"
  obs.value: -2.33
- compound: "COc1ccc(/C=C/C(=O)OCC(=O)Nc2cccc(Oc3ccccc3)c2)c(OC)c1"
  obs.value: 21.4
- compound: "Cc1cc(-c2csc(N)n2)c(C)n1Cc1ccccc1"
  obs.value: 1
- compound: "COC(=O)c1cc(N2CCNCC2)nc2ccccc12"
  obs.value: 1.69
- compound: "CC(C)Nc1ccc(-n2nc3ccccc3[n+]2[O-])cc1"
  obs.value: 1.5
- compound: "CC(N=Cc1nc(-c2ccccc2)oc1O)c1ccccc1 (stereo unspecified)"
  obs.value: 4.55
- compound: "Cc1cc(=O)oc2c3c(cc(OCC(=O)NCc4ccccn4)c12)OC(C)(C)CC3"
  obs.value: -1.76
- compound: "Cc1cc2nc3c(=O)n(Cc4ccccc4)c(=O)[nH]c3nc2cc1N"
  obs.value: 20.1
- compound: "CCOC(=O)N1CCC(O)(c2cc(C)c(C)cc2C)CC1"
  obs.value: 1.15
- compound: "Cc1nc2scc(-c3cccs3)c2c(=O)n1N"
  obs.value: 7.81
